FYI, the data here is from patent US7829560B2.

reported.metric: melting point

Some entries whose results are on file:
CSc1nccc(Oc2ccc(NC(=O)c3cc(F)cc(OC4CCCC4)c3)c3ccccc23)n1: 115 to 116 °C
CCN1CCN(c2nccc(Oc3ccc(NC(=O)c4cc(F)cc(N5CCCCC5)c4)c4ccccc34)n2)CC1: 86 to 87 °C
O=C(Nc1ccc(Oc2ccnc(NC3(CO)CCCC3)n2)c2ccccc12)c1cc(F)cc(N2CCOCC2)c1: 115 to 117 °C

Please examine the following record next.
Which value of melting point has been reported for CC(=O)N1CCN(CCCOc2ccc(NC(=O)c3cc(F)cc(N4CCCCC4)c3)c3ccccc23)CC1 in the records? 210 to 211 °C
